# EC50 per record follows
- measurement_target: T1, human CD24 (human, UniProt P25063 27-59, heavily glycosylated, GPI-anchored (as described in the background))
- T1 construct: whole, on cells; Target of all cell-based FACS assays; also called hCD24; Cluster of differentiation 24
- T1 chain (looked up): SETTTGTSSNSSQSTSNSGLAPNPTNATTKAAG
- protocol_text: FACS, Nalm1 cells
Give a bare numeral; the unit nM is implied.

Solved cases below.
{"columns": ["binder", "property", "val"],
 "data": [
  ["ch100F2E3-hIgG4 (antibody, V domains shown, chimeric) VH: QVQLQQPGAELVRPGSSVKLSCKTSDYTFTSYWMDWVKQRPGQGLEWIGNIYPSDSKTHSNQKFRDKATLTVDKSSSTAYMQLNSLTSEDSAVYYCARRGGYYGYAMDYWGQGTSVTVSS VL: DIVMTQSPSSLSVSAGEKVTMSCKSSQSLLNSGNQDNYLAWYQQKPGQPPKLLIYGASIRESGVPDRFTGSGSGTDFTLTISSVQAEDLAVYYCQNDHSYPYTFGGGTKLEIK", "EC50", 2.78],
  ["ch110D4G4-hIgG4 (antibody, V domains shown, chimeric; also called chAb110D4G4) VH: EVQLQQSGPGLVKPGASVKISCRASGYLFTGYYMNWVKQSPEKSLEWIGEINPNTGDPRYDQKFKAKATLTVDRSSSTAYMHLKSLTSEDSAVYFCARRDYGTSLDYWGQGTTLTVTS VL: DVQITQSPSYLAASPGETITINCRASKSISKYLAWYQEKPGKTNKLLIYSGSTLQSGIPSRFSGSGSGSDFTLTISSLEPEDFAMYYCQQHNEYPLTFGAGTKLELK", "EC50", 1.95],
  ["81A1F8 (antibody, V domains shown, mouse monoclonal antibody) VH: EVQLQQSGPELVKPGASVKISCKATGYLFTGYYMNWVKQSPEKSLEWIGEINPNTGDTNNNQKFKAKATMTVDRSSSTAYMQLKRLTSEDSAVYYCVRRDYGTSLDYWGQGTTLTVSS VL: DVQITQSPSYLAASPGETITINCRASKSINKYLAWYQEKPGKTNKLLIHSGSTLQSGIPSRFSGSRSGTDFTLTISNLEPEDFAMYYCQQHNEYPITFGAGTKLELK", "EC50", 1.9],
  ["100F2E3 (antibody, V domains shown, mouse monoclonal antibody) VH: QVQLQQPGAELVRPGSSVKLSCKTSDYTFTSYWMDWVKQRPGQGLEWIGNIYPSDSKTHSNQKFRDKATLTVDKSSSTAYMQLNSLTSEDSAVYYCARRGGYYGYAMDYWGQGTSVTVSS VL: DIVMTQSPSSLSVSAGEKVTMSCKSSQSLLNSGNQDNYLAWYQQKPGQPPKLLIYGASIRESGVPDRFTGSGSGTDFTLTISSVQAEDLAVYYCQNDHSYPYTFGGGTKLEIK", "EC50", 8.88],
  ["73H5-1G2 (antibody, V domains shown, mouse monoclonal antibody) VH: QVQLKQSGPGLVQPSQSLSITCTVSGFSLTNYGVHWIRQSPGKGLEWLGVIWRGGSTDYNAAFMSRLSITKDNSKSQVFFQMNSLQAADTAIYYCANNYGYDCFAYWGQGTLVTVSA VL: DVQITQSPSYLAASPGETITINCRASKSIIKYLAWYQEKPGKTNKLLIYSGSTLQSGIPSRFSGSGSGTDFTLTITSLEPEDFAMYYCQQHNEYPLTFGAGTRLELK", "EC50", 33.8]
]}

Which EC50 reading was recorded for the binder 110D4G4 (antibody, V domains shown, mouse monoclonal antibody; also called mAb-110D4G4) VH: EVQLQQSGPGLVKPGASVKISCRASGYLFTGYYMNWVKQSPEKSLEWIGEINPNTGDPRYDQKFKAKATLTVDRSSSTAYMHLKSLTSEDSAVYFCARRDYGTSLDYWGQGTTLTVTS VL: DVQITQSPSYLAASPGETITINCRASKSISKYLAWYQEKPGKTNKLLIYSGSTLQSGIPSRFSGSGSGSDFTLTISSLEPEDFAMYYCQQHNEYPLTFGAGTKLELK ?
3.27

Same read-out for 58F10-1F6 (antibody, V domains shown, mouse monoclonal antibody) VH: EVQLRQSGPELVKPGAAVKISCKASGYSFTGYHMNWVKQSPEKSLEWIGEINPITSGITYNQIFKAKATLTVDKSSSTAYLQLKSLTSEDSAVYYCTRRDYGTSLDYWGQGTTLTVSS VL: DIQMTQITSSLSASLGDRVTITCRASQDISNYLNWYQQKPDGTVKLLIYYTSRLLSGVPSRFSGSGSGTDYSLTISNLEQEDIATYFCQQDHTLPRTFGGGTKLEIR ?
8.72

Please answer likewise for ch81A1F8-hIgG4 (antibody, V domains shown, chimeric; also called chAb81A1F8; ch81A1F8-IgG4) VH: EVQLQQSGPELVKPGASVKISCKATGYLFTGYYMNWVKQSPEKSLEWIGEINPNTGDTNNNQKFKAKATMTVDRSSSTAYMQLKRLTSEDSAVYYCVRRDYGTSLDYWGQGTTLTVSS VL: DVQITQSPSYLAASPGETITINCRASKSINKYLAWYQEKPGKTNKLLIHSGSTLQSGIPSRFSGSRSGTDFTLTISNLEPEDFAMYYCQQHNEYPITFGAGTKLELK
1.31

Would you mind doing 56A7E3 (antibody, V domains shown, mouse monoclonal antibody) VH: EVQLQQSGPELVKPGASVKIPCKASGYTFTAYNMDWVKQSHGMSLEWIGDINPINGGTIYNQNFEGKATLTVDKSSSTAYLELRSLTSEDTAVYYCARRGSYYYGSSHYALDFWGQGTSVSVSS VL: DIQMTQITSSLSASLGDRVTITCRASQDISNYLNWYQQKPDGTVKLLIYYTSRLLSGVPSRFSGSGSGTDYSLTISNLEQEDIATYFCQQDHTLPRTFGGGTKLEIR as well?
20.9

Repeat for the following binder: ch56A7E3-hIgG4 (antibody, V domains shown, chimeric) VH: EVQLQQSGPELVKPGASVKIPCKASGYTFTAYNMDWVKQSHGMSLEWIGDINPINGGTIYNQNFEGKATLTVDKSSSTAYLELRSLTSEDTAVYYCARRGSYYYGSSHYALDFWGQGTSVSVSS VL: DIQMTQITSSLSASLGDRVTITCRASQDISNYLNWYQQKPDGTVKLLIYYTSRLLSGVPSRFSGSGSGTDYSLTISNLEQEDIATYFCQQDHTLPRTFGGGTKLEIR
66.4

Consider next the binder 71A4F12 (antibody, V domains shown, mouse monoclonal antibody) VH: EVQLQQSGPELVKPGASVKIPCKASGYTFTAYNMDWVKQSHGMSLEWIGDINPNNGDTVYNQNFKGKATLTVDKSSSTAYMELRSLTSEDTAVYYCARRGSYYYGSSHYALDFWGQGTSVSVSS VL: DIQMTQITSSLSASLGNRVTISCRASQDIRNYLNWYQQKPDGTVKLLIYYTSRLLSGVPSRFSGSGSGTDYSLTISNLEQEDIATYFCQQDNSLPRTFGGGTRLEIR in the same way.
6.28
